Data credit: patent US20240368115A1

Target: 5-HT2A receptor (Homo sapiens)
Sequence (P28223 whole entry): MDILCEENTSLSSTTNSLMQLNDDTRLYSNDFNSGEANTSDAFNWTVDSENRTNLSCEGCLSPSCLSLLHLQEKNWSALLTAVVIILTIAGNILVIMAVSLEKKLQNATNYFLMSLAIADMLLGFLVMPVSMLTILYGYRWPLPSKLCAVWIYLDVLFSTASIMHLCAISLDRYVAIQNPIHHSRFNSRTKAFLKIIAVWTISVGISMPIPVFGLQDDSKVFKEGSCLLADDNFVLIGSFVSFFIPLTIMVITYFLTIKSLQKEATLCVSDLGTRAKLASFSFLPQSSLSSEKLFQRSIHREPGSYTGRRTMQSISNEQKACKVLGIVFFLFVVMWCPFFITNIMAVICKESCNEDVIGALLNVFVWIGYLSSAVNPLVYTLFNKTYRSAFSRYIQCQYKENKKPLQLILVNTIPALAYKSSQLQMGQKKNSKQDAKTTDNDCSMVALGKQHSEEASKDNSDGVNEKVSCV
Assay: Calcium flux test for 5-HT2A receptor
Conditions: CHO cell strain stably expressing 5-HT2A receptor; calcium flux, antagonism of serotonin
From the text: • Fluo-4 calcium flux detection kit was purchased from Invitrogen; a CHO cell strain stably expressing 5-HT2A receptor was purchased from PerkinElmer; serotonin was purchased from Sigma; ketanserin was purchased from Targetmol; polylysine-coated 384-well plates and 384-well compound plates were purchased from Greiner Bio-One. […] Inhibition rate (Inhibition %)=(negative control reading value−compound reading value)/(negative control reading value−positive control reading value)×100%
Below is a list of entries, each paired with its recorded pIC50 value.
Value format note: pIC50 is -log10 of concentration (mol/L); just state the number.

Known pIC50 results, listed for orientation:
[
  {
    "compound": "O=C1Nc2cc(OCCCCN3CCN(c4ccc(Cl)s4)CC3)ccc2C2CC12 (stereo not shown) [Example 51]",
    "measured-value": 5.60
  },
  {
    "compound": "O=C1Nc2cc(OCCCCN3CCN(c4cccc5sccc45)CC3)ccc2C2CC12 (single isomer, unassigned) [Example 42-P1]",
    "measured-value": 5.71
  },
  {
    "compound": "O=C1Nc2cc(OCCCCN3CCN(c4cccc(Cl)c4Cl)CC3)ccc2[C@@H]2C[C@H]12 (single isomer, unassigned) [Example 1-P2]",
    "measured-value": 6.13
  },
  {
    "compound": "O=C1Nc2cc(OCCCCN3CCN(c4cccc5c4OCC5)CC3)ccc2C2CC12 (single isomer, unassigned) [Example 44-P1]",
    "measured-value": 6.72
  },
  {
    "compound": "O=C1Nc2cc(OCCCCN3CCN(c4cccc5c4OCC5)CC3)ccc2C2CC12 (single isomer, unassigned) [Example 44-P2]",
    "measured-value": 6.54
  },
  {
    "compound": "O=C1Nc2cc(OCCCCN3CCN(c4cccc5c4CCO5)CC3)ccc2C2CC12 (single isomer, unassigned) [Example 45-P2]",
    "measured-value": 6.39
  }
]

Exercise: I have this compound here, O=C1Nc2cc(OCCCCN3CCN(c4cccc5sccc45)CC3)ccc2C2CC12 (single isomer, unassigned) [Example 42-P2] , and I need its recorded pIC50.
Solution: 6.30

Exercise: Now consider O=C1Nc2cc(OCCCCN3CCN(c4cccc5ccsc45)CC3)ccc2C2CC12 (stereo not shown) [Example 48] and answer again.
Solution: 5.62

Exercise: Now consider O=C1Nc2cc(OCCCCN3CCN(c4cccc5sccc45)CC3)ccc2C2CC12 (stereo not shown) [Example 42] and answer again.
Solution: 5.77

Exercise: Now consider O=C1Nc2cc(OCCCCN3CCN(c4cccc(Cl)c4O)CC3)ccc2C2CC12 (stereo not shown) [Example 39] and answer again.
Solution: 5.53

Exercise: Now consider O=C1Nc2cc(OCCCCN3CCN(c4cccc(Cl)c4Cl)CC3)ccc2C2CC12 (stereo not shown) [Example 1] and answer again.
Solution: 6.14

Exercise: Now consider O=C1Nc2cc(OCCCCN3CCN(c4cccc5c4CC(F)(F)C5)CC3)ccc2C2CC12 (stereo not shown) [Example 46] and answer again.
Solution: 5.63

Exercise: Now consider O=C1Nc2cc(OCCCCN3CCN(c4cccc5sc(Cl)cc45)CC3)ccc2C2CC12 (stereo not shown) [Example 49] and answer again.
Solution: 5.13

Exercise: Now consider O=C1Nc2cc(OCCCCN3CCN(c4cccc5c4CCC5)CC3)ccc2C2CC12 (stereo not shown) [Example 43] and answer again.
Solution: 6.01
